# PROTOCOL: CREB reporter modulators under forskolin, primary screen, cell-based, PC12, CRE-LacZ reporter, forskolin-stimulated (AID 1146);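 also: PC12 cells with 6xCRE LacZ reporter stimulated by forskolin 10 µM; beta-galactosidase reporter signal reflecting CREB driven transcription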
# REPORTED_CONDITIONS: luminescence, 4.5 h, higher = more signal, called active from +8 up or from −8 down
In this section, each of the compounds is paired with its reported z-score.

| COMPOUND | z-score |
| --- | --- |
| CCCC[C@H]1OB(O)C[C@H]2C1=C(COC)C[C@H]1C(=O)N(C)C(=O)[C@H]12 | 0.505 |
| C=CCNC(=O)[C@@H]1[C@H]2C(=O)O[C@H](c3ccccc3)[C@H](c3ccccc3)N2[C@H](c2ccccc2OCCO)[C@@]12C(=O)N(C(=O)OCCOC)c1ccccc12 | -0.768 |
| CC(C)C(=C=CC[C@@H](O)c1ccc(OCCO)cc1)C[C@@H](O)c1ccccn1 | 1.4 |
| COc1ccc(C(O)C2C=CC3C(=O)N(Cc4ccccc4)C(=O)C3N2n2cnnc2)cc1OCc1ccccc1 (centres undefined) | -0.0263 |

* * *

# TEST_TARGET: Torsin-1A (Homo sapiens) (UniProt O14656)
# Sequence (O14656 whole entry, looked up): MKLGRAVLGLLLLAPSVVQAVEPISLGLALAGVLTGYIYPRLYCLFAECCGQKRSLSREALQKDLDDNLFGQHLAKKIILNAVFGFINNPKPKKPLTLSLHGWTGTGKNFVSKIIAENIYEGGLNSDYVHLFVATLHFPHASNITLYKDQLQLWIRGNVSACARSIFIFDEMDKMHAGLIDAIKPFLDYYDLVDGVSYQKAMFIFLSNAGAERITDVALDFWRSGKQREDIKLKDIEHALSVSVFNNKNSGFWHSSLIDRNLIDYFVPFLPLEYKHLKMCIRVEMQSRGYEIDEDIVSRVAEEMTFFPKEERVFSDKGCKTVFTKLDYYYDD
# PROTOCOL: torsin A binders from cell lysate, primary screen, small-molecule microarray, wild-type, 635/667 nm (AID 1149)
# REPORTED_CONDITIONS: COS7 hTOR1A-WT lysate, 635 nm fluorescence, higher = more signal
MEASURE_NAME: composite z-score

| COMPOUND | TEST_RESULT |
| --- | --- |
| CC(C)NC(=O)[C@@]1(C)c2ccccc2C(=O)N(Cc2cc(C(F)(F)F)cc(C(F)(F)F)c2)[C@H]1c1ccc(CO)cc1 | -0.979 |
| O[C@@H](Cc1ccccc1)[C@H]1C2C=CCCC=C2CN1Cc1cccc(Cl)c1 (stereo partly specified) | 0.739 |
| COC(=O)[C@H](Cc1ccccc1)N1CC2=C[C@@H](C3CC3)n3c(=O)n(C)c(=O)n3[C@H]2[C@@H]1[C@@H](O)Cc1ccccc1 | 0.413 |
| CC#CC(=O)Oc1ccccc1C=CC(=O)OCC | -0.402 |
| C=C(/C(=C/C[C@H](OC(C)=O)c1ccccc1OCCO)c1cnc2ccccc2c1)C(C)C | 0.316 |
| CO[C@H]1O[C@H](CO)[C@@H](OC(=O)Nc2ccc(C(F)(F)F)cc2)[C@H](OC(=O)Nc2ccc3c(c2)OCO3)[C@@H]1OC(=O)Nc1ccc2c(c1)OCO2 | 1.81 |
| C=C[C@H](CO[Si](CC)(CC)CC)N(Cc1ccc(OC(C)=O)c(OC)c1)S(=O)(=O)c1ccc(Br)cc1 | 0.837 |
| COc1ccc([Si](C)(C)[C@@H]2[C@@H](CC(=O)N3CCC[C@H]3CO)O[C@]3(C(=O)N(c4ccccc4)c4ccccc43)[C@H]2C)cc1 | 0.491 |
| COc1ccc(-c2cc3c(c(-c4ccc(Oc5ccccc5)cc4)n2)[Si](C(C)C)(C(C)C)OC3)cn1 | -0.664 |
| O=C1N(Cc2ccccc2)c2ccccc2[C@@H]2OC(c3ccc(OCCCO)cc3)=N[C@]12CCS(=O)(=O)c1ccccc1 | 0.216 |
| CCCC[C@@H]1C[C@H]1[C@@H](NC(=O)c1ccco1)c1ccc(-c2ccccc2)cc1 | 0.618 |
| O=C(c1ccccc1)N1Cc2ccccc2C[C@@]2(COC(c3ccc(OCCCO)cc3)=N2)C1=O | 0.655 |
| CCOC(=O)C1=C[C@@H](C(C)(C)C)N(S(=O)(=O)c2ccc(C)cc2)[C@H]1c1ccc(F)cc1 | 0.159 |
| CCCC[C@H]1OB(O)C[C@H]2C1=C(COC)Cn1c(=O)n(-c3ccccc3)c(=O)n12 | 0.0681 |
| COCCOC(=O)N1C(=O)[C@@]2(c3cc(C#CCC(C(=O)OC)C(=O)OC)ccc31)[C@H](c1ccccc1OCCO)N1[C@H](c3ccccc3)[C@H](c3ccccc3)OC(=O)[C@H]1[C@@H]2C(=O)NC[C@H](O)c1ccccc1 | 0.555 |
| COc1cc2c(cc1OC)CN(C(=O)[C@@H]1[C@H]3C(=O)O[C@H](c4ccccc4)[C@H](c4ccccc4)N3[C@H](c3ccccc3OCCO)[C@@]13C(=O)Nc1ccc(C#CCCO)cc13)CC2 | 0.0499 |
| CC(C)C(CO)N1C(=O)[C@@H]2C3C(=O)OCCC/C=C\[C@H]3OC23C=CCN(CCN2CCOCC2)C(=O)[C@@H]13 (stereo partly specified) | -0.111 |
| C=CC[C@]1(C(=O)NCc2ccccc2)N=C(c2ccc(OCCCO)cc2)O[C@H]1c1ccccc1N=[N+]=[N-] | 0.818 |
| COc1ccc(CCNC(=O)[C@@]2(C)c3ccccc3C(=O)N(C(C)C)[C@H]2c2ccc(CO)cc2)cc1 | 0.0534 |
| COc1cccc(-c2cccc(=O)o2)c1 | 0.0114 |
| C=C(C(=O)CC[C@@H](OC(=O)c1cccnc1)c1ccccc1OCCO)C(C)C | 0.784 |
| COc1ccc(CCNC(=O)[C@@]2(Sc3ccc(C)cc3)CC(=O)N(C3Cc4ccccc4C3)[C@@H]2c2ccc(CO)cc2I)cc1 | -0.27 |
| CC1CC/C=C\[C@H]2OC34C=CCN(C(C)(C)C)C(=O)[C@H]3N(C(C)CO)C(=O)[C@@H]4C2C(=O)O1 (stereo partly specified) | -0.468 |
| O=C(NCCN1CCOCC1)C1N=C(c2ccc(OCCCO)cc2)N(c2ccccc2)O1 (stereo unspecified) | 1.86 |
| N#Cc1ccc(NN2C(C(O)C(c3ccccc3)c3ccccc3)C=CC3C(=O)N(c4ccccc4)C(=O)C32)cc1 (stereo unspecified) | 0.604 |
| C=CCNC(=O)[C@@H]1[C@H]2C(=O)O[C@H](c3ccccc3)[C@H](c3ccccc3)N2[C@H](c2ccc(OCCO)cc2)[C@@]12C(=O)Nc1ccc(C#CCC(C(=O)OC)C(=O)OC)cc12 | 0.309 |
| O=C1NC(=O)C2C1C=CC(C(O)c1cc(C(F)(F)F)cc(C(F)(F)F)c1)N2Nc1ccccn1 (stereo unspecified) | -0.138 |
| CCc1cccc(NC(=O)O[C@H]2[C@H](OC(=O)Nc3ccccc3-c3ccccc3)[C@@H](OC(=O)Nc3ccccc3-c3ccccc3)[C@@H](OC)O[C@@H]2CO)c1 | 1.19 |
| Cc1ccc(S[C@]2(C(=O)O)CC(=O)N(C(C)C)[C@@H]2c2ccc(CO)cc2I)cc1 | 0.523 |
| CC(=O)n1cc(C(O)C2C=CC3C(=O)N(c4ccccc4)C(=O)C3N2Nc2ccc([N+](=O)[O-])cc2)c2ccccc21 (stereo unspecified) | -0.268 |
| CC(C)[Si]1(C(C)C)O[C@@H](c2ccccc2)c2cc(-c3ccc(-c4ccc(Cl)c(Cl)c4)o3)nc(-c3ccccc3)c21 | -0.118 |
